Molecular target: T1, human GIP receptor (human, UniProt P48546 22-466)
T1 sequence (looked up): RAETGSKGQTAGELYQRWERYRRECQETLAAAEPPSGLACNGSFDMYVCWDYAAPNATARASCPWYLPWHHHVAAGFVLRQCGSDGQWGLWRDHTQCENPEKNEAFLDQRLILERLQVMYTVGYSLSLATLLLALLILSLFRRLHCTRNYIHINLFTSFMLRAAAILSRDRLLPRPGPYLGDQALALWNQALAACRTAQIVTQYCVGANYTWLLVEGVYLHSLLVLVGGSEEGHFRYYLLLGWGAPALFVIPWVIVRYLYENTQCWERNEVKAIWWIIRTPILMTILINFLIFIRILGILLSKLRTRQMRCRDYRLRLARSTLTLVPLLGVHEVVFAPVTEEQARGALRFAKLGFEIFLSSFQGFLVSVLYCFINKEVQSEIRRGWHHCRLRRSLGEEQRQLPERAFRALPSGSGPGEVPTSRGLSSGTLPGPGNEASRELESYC
Assay: cell-based or functional assay
Please note: class 1 applies when cAMP EC50 (1.0% HSA) is 1 nM or greater, and class 0 applies otherwise.

Record YXEGTXTSDXSIXLDXKAQXEFIXXLIEGGKSSGAPPPS (Aib2, αMeF(2F)6, Nle10, αMeL13, Orn16, Aib20, D-Glu24, αMeY25; acylated K17, K31 (groups as in name); C-terminal amide) ; criterion: cAMP EC50 (1.0% HSA) no lower than 1 nM. Met? class 1

Record YXEGTXTSDXXIXLDXKAQXEFIXXLIEGGKSSGAPPPS (Aib2, αMeF(2F)6, 4Pal10, αMeS11, αMeL13, Orn16, Aib20, D-Glu24, αMeY25; acylated K17, K31 (groups as in name); C-terminal amide) ; criterion: cAMP EC50 (1.0% HSA) no lower than 1 nM. Met? class 1

Record YXEGTXTSDXSIXLDXKAQXEXIXXLIEGGKSSGAPPPS (Aib2, αMeF(2F)6, 4Pal10, αMeL13, Orn16, Aib20, 3,5FPhe22, D-Glu24, αMeY25; acylated K17, K31 (groups as in name); C-terminal amide) ; criterion: cAMP EC50 (1.0% HSA) no lower than 1 nM. Met? class 1

Record YXEGTXTSDXSIXLDXIAQXEFIKXLIEGGKSSGAPPPS (Aib2, αMeF(2F)6, 4Pal10, αMeL13, Orn16, Aib20, αMeY25; acylated K24, K31 (groups as in name); C-terminal amide) ; criterion: cAMP EC50 (1.0% HSA) no lower than 1 nM. Met? class 1
